Quick reference for MRT among some compounds
# METHOD: rat in vivo pharmacokinetics, IV and PO
# RUN PARAMETERS: in vivo, iv, 1 mg/kg
Supply the numeric figure in h, leaving out any unit text.

Some compounds with recorded MRT:
COMPOUND: O=C(Nc1ccc(N2C(=O)[C@@H]3[C@H](C2=O)[C@@H]2C=C[C@H]3C2)c(Cl)c1)c1ccccn1 [15f]
MEASUREMENT UNITS: h
RECORDED RESULT: 8.22

COMPOUND: O=C(Nc1ccc(N2C(=O)CC(c3ccccc3)C2=O)c(Cl)c1)c1ccccn1 (stereo not drawn) [15k]
MEASUREMENT UNITS: h
RECORDED RESULT: 1.82

Could you now look at the following compound, please?
// query Supply MRT value. Item: O=C(Nc1ccc(N2C(=O)CC3(CCCCC3)C2=O)c(Cl)c1)c1ccccn1 [15j]
// result 0.953

Data provenance is paper PMC3226828.
